tested.on: peripheral receptors for benzodiazepines ([^3 H]-R05-4864) (Rattus norvegicus, UniProt P16257)
experimental.readout: IC50

Check out these entries, answers already filled in.
Cn1c(=O)n2cc(-c3ccccc3)nc2c2ccccc21 [Example 29] :: > 100 µM
CCN(CC)C(=O)Cn1c(=O)n2cc(-c3ccc(Cl)cc3)nc2c2ccccc21 [Example 15] :: ~100 µM

Query compound follows.
Problem: What does the record list as IC50 for CC(C)NC(=O)Cn1c(=O)n2cc(-c3ccccc3)nc2c2ccccc21 [Example 14] ?
Solution: > 100 µM
